# EXPERIMENTAL_SYSTEM: HLA-DR1 molecule (DRB1*0101) (Homo sapiens, UniProt P01903+P01911, A100R/D57E/F55L/F60I/F76Y/I96L/L162R/M171V/P40L/Q125E/R42F/V115G/Y59C)
# Construct: endogenous in cells
# METHOD: biochemical
Residues, ends and D or L forms follow the SMILES beside them.
RESULT_TYPE: pIC50
// returns pIC50 (minus log10 of molar concentration), number only

Please give the documented pIC50 of CC(C)C[C@H](NC(=O)[C@@H]1CCCN1C(=O)[C@H](CCCCN)NC(=O)[C@H](CC(N)=O)NC(=O)[C@H](Cc1ccc(O)cc1)NC(=O)[C@H](CCC(N)=O)NC(=O)[C@H](CCC(N)=O)NC(=O)[C@H](CCC(=O)O)NC(=O)[C@H](CC(C)C)NC(=O)[C@@H](NC(=O)[C@@H](NC(=O)CNC(=O)[C@H](Cc1ccc(O)cc1)NC(=O)[C@H](CC(C)C)NC(=O)[C@@H](N)CO)[C@@H](C)O)[C@@H](C)O)C(=O)O [E6 89-103, S L Y G T T L E Q Q Y N K P L] (H-SLYGTTLEQQYNKPL-OH; N-terminus and C-terminus assumed)
6.90

Please give the documented pIC50 of CC(C)C[C@H](NC(=O)[C@H](CCCNC(=N)N)NC(=O)[C@H](CC(C)C)NC(=O)[C@@H](NC(=O)[C@H](CO)NC(=O)[C@H](CC(=O)O)NC(=O)[C@H](CS)NC(=O)[C@@H](N)CCCCN)[C@@H](C)O)C(=O)N[C@@H](CS)C(=O)N[C@H](C(=O)N[C@@H](CCC(N)=O)C(=O)N[C@@H](CO)C(=O)N[C@H](C(=O)N[C@@H](Cc1c[nH]cn1)C(=O)N[C@H](C(=O)O)C(C)C)[C@@H](C)O)C(C)C [E7/VI]
5.30

Please give the documented pIC50 of CC[C@H](C)[C@H](NC(=O)[C@H](CC(N)=O)NC(=O)[C@H](Cc1c[nH]cn1)NC(=O)[C@H](Cc1ccccc1)NC(=O)[C@H](CCCNC(=N)N)NC(=O)[C@H](CCC(N)=O)NC(=O)[C@H](CCCCN)NC(=O)[C@H](CCCCN)NC(=O)[C@H](CC(=O)O)NC(=O)[C@H](CC(C)C)NC(=O)[C@@H](N)Cc1c[nH]cn1)C(=O)N[C@@H](CCCNC(=N)N)C(=O)NCC(=O)N[C@@H](CCCNC(=N)N)C(=O)O [E6 124-138, H L D K K Q R F H N I R G R] (H-HLDKKQRFHNIRGR-OH; N-terminus and C-terminus assumed)
8.00

Reference source: patent US7488791B2
